- Protocol notes: Assay for plasma protein binding rate (equilibrium dialysis), human plasma
- Assay type: in vitro ADME
- Condition context: dialysis 6 h at 37 °C, read-out: Human (Fu%)
Catalogue of molecules with associated fraction unbound at 6 h, 1 µM
Returns: the value as a bare number; no unit string appended.

Incoming: Data request, read-out fraction unbound at 6 h, 1 µM, for "COc1nc(Cn2cccn2)cc2onc(NS(=O)(=O)c3cccc4c3OCO4)c12"
Outgoing: 0.0086

Incoming: Entry "COc1cc2ccoc2cc1S(=O)(=O)Nc1noc2cc(Cn3cccn3)nc(OC)c12" please
Outgoing: 0.0149

Incoming: How about this molecule: "COc1ccc2occc2c1S(=O)(=O)Nc1noc2cc(Cn3cccn3)nc(OC)c12"
Outgoing: 0.0066
